# Condition Notes: in n-butanol, 300.05 K
Observed Property: solubility (mole fraction)
Answer with a number only.

INPUT: solubility (mole fraction) lookup needed for Cl.N=C(N)Nc1ccc(C(=O)O)cc1 , thanks.
OUTPUT: 0.00137

* * *

# Condition Notes: in n-pentanol, 310.05 K
Observed Property: solubility (mole fraction)
Answer with the value's number alone.

INPUT: Recorded solubility (mole fraction) for Cl.N=C(N)Nc1ccc(C(=O)O)cc1 , please?
OUTPUT: 0.00096

* * *

# Condition Notes: in water, 309.95 K
Observed Property: solubility (mole fraction)

INPUT: Entry under review: Cl.N=C(N)Nc1ccc(C(=O)O)cc1 . Reported solubility (mole fraction)?
OUTPUT: 0.00884

// provenance: BigSolDB 2.1
